target: A receptor of endothelin (Rattus norvegicus)
Sequence (P26684 21-426): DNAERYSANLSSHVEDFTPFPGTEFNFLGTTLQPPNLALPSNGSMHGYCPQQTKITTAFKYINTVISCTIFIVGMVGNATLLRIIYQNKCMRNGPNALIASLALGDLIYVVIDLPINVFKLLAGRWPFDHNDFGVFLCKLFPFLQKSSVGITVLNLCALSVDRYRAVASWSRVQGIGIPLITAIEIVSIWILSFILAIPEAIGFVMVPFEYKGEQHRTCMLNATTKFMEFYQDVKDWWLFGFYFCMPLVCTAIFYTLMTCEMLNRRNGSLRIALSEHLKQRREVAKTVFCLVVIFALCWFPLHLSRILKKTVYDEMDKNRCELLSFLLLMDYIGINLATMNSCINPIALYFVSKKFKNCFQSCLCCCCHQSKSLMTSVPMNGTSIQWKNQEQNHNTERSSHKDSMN
attribute measured: IC50 (nM)

{"columns": ["cpd smiles", "measurement target", "attribute measured", "value"],
 "data": [
  ["COc1ccc(Sc2nc(C)n(Cc3cc4c(cc3Cl)OCO4)c2C(=O)O)cc1", "A receptor of endothelin (Rattus norvegicus)", "IC50", 110]
]}
